Sourced from patent US9656971B2

system: Rec. human COMT (Homo sapiens)
Sequence (P21964 1-271): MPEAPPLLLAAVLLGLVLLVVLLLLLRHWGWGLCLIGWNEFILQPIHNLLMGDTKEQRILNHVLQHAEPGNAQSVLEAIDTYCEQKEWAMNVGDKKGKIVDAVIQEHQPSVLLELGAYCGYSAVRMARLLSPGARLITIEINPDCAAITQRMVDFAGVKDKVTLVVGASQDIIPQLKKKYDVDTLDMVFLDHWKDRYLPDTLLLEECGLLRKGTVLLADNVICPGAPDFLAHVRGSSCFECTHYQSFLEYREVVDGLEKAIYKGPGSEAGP
assay: COMT-Fluorescence Assay
Assay type: biochemical
setup_conditions: COMT-fluorescence assay, rec. human COMT 25 nM, 4-Nitrocatechol-Alexa488 200 nM, SAM 500 nM; read-out: IC50
pIC50: −log10 of the molar value.
measured_endpoint: pIC50

A. CC(=O)Nc1ccccc1-c1cc(O)c2nc[nH]c(=O)c2c1
B. O=c1[nH]cnc2c(O)cc(-c3cccc4cccnc34)cc12
(Q) Field: entry with larger pIC50 (options A / B ). Pick one; state its label.
(A) B

1. O=C(NCC(F)(F)F)c1cc(O)c2nc[nH]c(=O)c2c1
2. CN1CCN(C(=O)c2cccc(-c3cc(O)c4nc[nH]c(=O)c4c3)c2)CC1
(Q) When the recorded pIC50 values are compared, which is smaller: that of 1 or that of 2 ? Mark your answer with the label of the selected entry.
(A) 1
(1: 6.18, 2: 7.52)

a. O=c1[nH]cnc2c(O)c(F)c(Br)c(-c3ccc(F)cc3)c12
b. CSc1ccccc1-c1cc(O)c2nc[nH]c(=O)c2c1
(Q) Which numeric pIC50 is bigger, that of a or that of b ? // caller expects the label of the chosen entry
(A) b
(b: 7.70, a: 6.82)

a. Cc1ccc(-c2ccc(C(F)(F)F)cc2)c(-c2cc(O)c3nc[nH]c(=O)c3c2)c1
b. O=c1[nH]cnc2c(O)ccc(F)c12 [Example 197, 5-Fluoro-8-hydroxyquinazolin-4(3H)-one]
(Q) Response body: label of entry with the larger pIC50; valid values a , b . Lab log: write the label of the selected item as the result.
(A) a
